EXPERIMENT_SUMMARY: plasmodial surface anion channel blockers, osmotic lysis – cell-based, P. falciparum Indochina, OD700, 18 h, primary screen (AID 1157)
TEST_SETTINGS: P. falciparum Indochina infected erythrocytes, osmotic lysis OD700, 18 h; higher = more signal, called active from +8 up or from −8 down
# if value of z-score reaches 0.7, tag t; if it stays below, tag f

COC(=O)c1ccc(OC)c(/C=C\CC(CCc2ccccc2)OC(=O)c2ccncc2)c1 (stereo not given)    f

Next compound, please.
Prompt line: API: above_or_equal(metric=z-score, cutoff=0.7) for item Cc1cc(C)c(C(O)C2C=CC3C(=O)N(c4ccccc4)C(=O)C3N2Nc2ccccc2)c(C)c1 (stereo not given)
Response line: t

----------
EXPERIMENTAL_TARGET: Fibroblast growth factor 2 (Homo sapiens) (UniProt P09038)
Sequence (P09038 whole entry, looked up): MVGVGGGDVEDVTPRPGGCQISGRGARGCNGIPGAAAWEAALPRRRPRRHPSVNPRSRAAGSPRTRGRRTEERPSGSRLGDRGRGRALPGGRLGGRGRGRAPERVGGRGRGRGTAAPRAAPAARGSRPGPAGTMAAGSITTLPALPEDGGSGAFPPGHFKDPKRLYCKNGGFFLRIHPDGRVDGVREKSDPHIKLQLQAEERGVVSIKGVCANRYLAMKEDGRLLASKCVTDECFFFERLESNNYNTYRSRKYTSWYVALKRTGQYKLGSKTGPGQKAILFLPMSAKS
EXPERIMENT_SUMMARY: basic fibroblast growth factor binding to printed compounds – biochemical, small-molecule microarray, 635/667 nm fluorescence, primary screen (AID 1133)
TEST_SETTINGS: FGF2, fluorescence 635/667, higher = more signal
// thresholds for composite z-score classes: bin 0 (below 0.1), bin 1 (0.1 to below 0.8), bin 2 (0.8 or more)

Cc1ccc(-c2cccc(=O)o2)cc1    bin 1
COCCCNC(=O)[C@@H]1c2ccccc2C(=O)N(c2ccc(C)cn2)[C@H]1c1ccc(CO)cc1    bin 0

Next compound, please.
Prompt line: Pick a category. Item: C=CC[C@@]1(C(=O)NCC(O)CO)N=C(c2ccc(OCCCO)cc2)O[C@@H]1c1ccccc1 (some centres undefined)
Response line: bin 2

----------
Examples of molecules with documented composite z-score follow.
System: Lefty1
EXPERIMENT_SUMMARY: Lefty1 protein binding to printed compounds – biochemical, small-molecule microarray, 635/667 nm fluorescence, primary screen (AID 1139)
TEST_SETTINGS: fluorescence 635/667, higher = more signal
Please reply with the value in numeric form only.

C#CCNS(=O)(=O)N(C)C    0.643
COCCOC(=O)N1C(=O)[C@@]2(c3cc(C#CCC(C(=O)OC)C(=O)OC)ccc31)[C@H](c1ccc(OCCO)cc1)N1[C@H](c3ccccc3)[C@H](c3ccccc3)OC(=O)[C@H]1[C@@H]2C(N)=O    0.484

Record "C=C(/C(=C/C[C@@H](OC(=O)c1ccncc1)c1cccc(OCCO)c1)c1cc(C(=O)OC)ccc1OC)C(C)C" ; system Lefty1; composite z-score = 0.879

Record "[N-]=[N+]=Nc1ccccc1[C@H]1OC(c2ccc(OCCCO)cc2)=N[C@@]1(Cc1ccccc1)C(=O)NCc1ccccc1" ; system Lefty1; composite z-score = 0.362

----------
EXPERIMENT_SUMMARY: resazurin metabolic signal in HepG2 cells – cell-based, resazurin fluorescence, 24 h, PK04 Diversity Set, profiling panel (AID 1172); further: test concentration not given here
TEST_SETTINGS: HepG2 viability, higher = more signal
Examples of compounds with documented z-score follow.

O=C1O[C@H](c2ccccc2)[C@H](c2ccccc2)N2[C@H]1[C@@H](C(=O)N1CCN(c3ncccn3)CC1)[C@]1(C(=O)Nc3ccc(C#CCCO)cc31)[C@H]2c1ccccc1OCCO    -0.141
C[C@@]1([C@@H](NC(=O)c2cccs2)c2ccc(-c3ccccc3)cc2)C[C@H]1C1CCCCC1    0.133
O=C1C[C@@](C(=O)NCc2ccccc2)(c2ccc([N+](=O)[O-])cc2)[C@@H](c2ccc(CO)cc2I)N1C1CCCCC1    -0.327

z-score reading for "CN(C)C(=O)[C@@]1(Cc2ccccc2N=[N+]=[N-])N=C(c2ccc(OCCCO)cc2)O[C@H]1c1ccccc1N=[N+]=[N-]" : -0.663

z-score reading for "CCCCC(=C=CC[C@H](O)c1cccc(OCCO)c1)C[C@H](O)COCc1ccccc1" : 1.38

z-score reading for "O=C(O)[C@]1(CCS(=O)(=O)c2ccccc2)N=C(c2ccc(OCCCO)cc2)O[C@@H]1c1ccccc1" : 0.93

z-score reading for "O=C1c2ccccc2[C@](Cc2ccccc2I)(C(=O)NCC(F)(F)F)[C@H](c2ccc(CO)cc2)N1Cc1ccccc1" : 0.846

z-score reading for "NC(=O)[C@@H]1[C@H]2C(=O)O[C@H](c3ccccc3)[C@H](c3ccccc3)N2[C@H](c2ccccc2OCCO)[C@@]12C(=O)Nc1ccc(C#CCCO)cc12" : 1.06

----------
Examples of molecules with documented z-score follow.
EXPERIMENT_SUMMARY: plasmodial surface anion channel blockers, osmotic lysis – cell-based, P. falciparum Indochina, OD700, 18 h, primary screen (AID 1157)
TEST_SETTINGS: P. falciparum Indochina infected erythrocytes, osmotic lysis OD700, 18 h; higher = more signal, called active from +8 up or from −8 down
Please reply with the value in numeric form only.

COC(=O)C(CC#Cc1ccc2c(c1)[C@]1(C(=O)N2)[C@H](C(=O)N2CCc3cc(OC)c(OC)cc3C2)[C@H]2C(=O)O[C@H](c3ccccc3)[C@H](c3ccccc3)N2[C@@H]1c1ccc(OCCO)cc1)C(=O)OC    1.28
COc1ccccc1CN1C(=O)c2ccccc2[C@@]2(Cc3ccccc3N(C3CC3)C2=O)[C@@H]1c1ccc(CO)cc1    0.23
COc1ccc(C#Cc2ccc3c(c2)[C@]2(C(=O)N3)[C@H](C(=O)O)[C@H]3C(=O)O[C@H](c4ccccc4)[C@H](c4ccccc4)N3[C@@H]2c2ccc(OCCO)cc2)cc1    -0.097
C=CCOC(=O)[C@@H]1[C@H]2C(=O)O[C@H](c3ccccc3)[C@H](c3ccccc3)N2[C@H](c2ccc(OCCOC(=O)[C@H]3C[C@H]4C(=O)N[C@@H](Cc5ccccc5)C(=O)N4[C@H]3c3cccc(OCCO)c3)cc2)[C@@]12C(=O)Nc1ccc(I)cc12    0.619
COC(=O)[C@@]1(Cc2ccccc2)[C@H]2c3cc(C(=O)N4CCCC4)n(Cc4ccc(OC(F)(F)F)cc4)c3C[C@H]2CN1C(=O)c1ccccc1    1.35

Now consider the entry below.
z-score reading for "CC(=O)NCCCC[C@@H]1NC(=O)[C@H]2C[C@@H](C(=O)NCCCCCN)[C@@H](c3cccc(OCCO)c3)N2C1=O" : -1.98

----------
EXPERIMENT_SUMMARY: binders from COS7 lysate, DM2A8 probe, primary screen, torsin A project, cell lysate, small-molecule microarray, fluorescence 635/667 (AID 1065)
TEST_SETTINGS: higher = more signal, COS7 lysate expressing mutant human TOR1A
# if value of composite z-score reaches 0.5, tag Y; if it stays below, tag N

Please review the following examples before continuing.
COCCOC(=O)N1C(=O)[C@@]2(c3cc(C#CCNC(N)=O)ccc31)[C@H](c1ccc(OCCO)cc1)N1[C@H](c3ccccc3)[C@H](c3ccccc3)OC(=O)[C@H]1[C@@H]2C(=O)N1CCN(c2ncccn2)CC1    N
CC(C)(C)N1CC=CC23O[C@@H]4C=CCCOC(=O)C4[C@H]2C(=O)N(CCCO)[C@@H]3C1=O (stereo partly drawn)    N
[N-]=[N+]=NCc1ccccc1[C@H]1OC(c2ccc(OCCCO)cc2)=N[C@@]1(Cc1ccccc1N=[N+]=[N-])C(=O)NCCN1CCOCC1    N
O=C1N(CCS(=O)(=O)c2ccccc2)c2ccccc2[C@H]2OC(c3ccc(OCCCO)cc3)=N[C@@]12CCS(=O)(=O)c1ccccc1    Y
O=C(N1CCOCC1)[C@@]1(CCS(=O)(=O)c2ccccc2)COC(c2ccc(OCCCO)cc2)=N1    N
C=C(COC)C(=O)CC[C@H](OC(=O)c1ccccc1-c1ccccc1C(=O)O)c1ccc(OCCO)cc1    Y

Prompt line: API: above_or_equal(metric=composite z-score, cutoff=0.5) for item "COC(=O)c1c(CC[C@@H](CO)NC(=O)N[C@@H](C)Cn2cc(C3(O)CCCC3)nn2)oc(C(C)=O)c1C(=O)OC"
Response line: Y

Prompt line: API: above_or_equal(metric=composite z-score, cutoff=0.5) for item "C=CC[C@]1(C(=O)N(C)C)N=C(c2ccc(OCCCO)cc2)O[C@H]1c1ccccc1"
Response line: N

Prompt line: API: above_or_equal(metric=composite z-score, cutoff=0.5) for item "COC(=O)[C@@]1(Cc2ccccc2)[C@H]2c3cc(C(=O)N4CCCC4)n(Cc4ccc(OC(F)(F)F)cc4)c3C[C@H]2CN1C(=O)c1ccccc1"
Response line: N

----------
EXPERIMENT_SUMMARY: hepatitis C replication reporter changes, two-sided – Huh7 cells, luciferase reporter, HCV replication inhibitor project, primary screen (AID 1109);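 further: huh7 hepatoma cells harbouring a luciferase neomycin HCV replicon reporter; luciferase luminescence as measure of HCV replicon replication; test concentration not given here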
TEST_SETTINGS: Huh7 HCV replicon luciferase reporter, 48 h; higher = more signal
PROPERTY_LABEL: z-score
Please reply with the value in numeric form only.

z-score reading for "C=C(COC)C(=O)CC[C@H](OC(=O)c1ccccc1-c1ccccc1C(=O)O)c1ccc(OCCO)cc1" : -1.06

z-score reading for CC(C)N1CC=CC23O[C@@H]4C=CCOC(=O)[C@@H]4[C@H]2C(=O)N(CCCCCCO)[C@@H]3C1=O (some centres undefined) : -0.761

z-score reading for "COc1ccc([Si](C)(C)[C@H]2[C@H](CCO)O[C@@]3(C(=O)N(Cc4cccc(N5CCOC5=O)c4)c4ccccc43)[C@@H]2C)cc1" : -4.39

z-score reading for CC1C=C(CCCO)C=C(C(=O)OCCS(C)(=O)=O)C(C(=O)OCCS(C)(=O)=O)=CN1Cc1cccc(OC(F)(F)F)c1 (centres undefined) : -1.82
